Experiment: Cytotoxicity against human HuH7 cells after 3 days
Type: cell-based, Huh-7

molecule	CC50 at 72 h
CC[C@H](C)[C@H](NP(=O)(N[C@H](C(=O)OCC(C)(C)C)[C@@H](C)CC)OC[C@H]1O[C@@H](n2cnc3c(OC)nc(N)nc32)[C@](C)(O)[C@@H]1O)C(=O)OCC(C)(C)C (mixture of isomers)	15 µM
COc1nc(N)nc2c1ncn2[C@@H]1O[C@H](COP(=O)(N2CCC[C@H]2C(=O)OCc2ccccc2)N2CCC[C@H]2C(=O)OCc2ccccc2)[C@@H](O)[C@@]1(C)O (mixture of isomers)	> 100 µM
COc1nc(N)nc2c1ncn2[C@@H]1O[C@H](COP(=O)(N[C@@H](CC(=O)OCc2ccccc2)C(=O)OCc2ccccc2)N[C@@H](CC(=O)OCc2ccccc2)C(=O)OCc2ccccc2)[C@@H](O)[C@@]1(C)O (mixture of isomers)	> 100 µM
COc1nc(N)nc2c1ncn2[C@@H]1O[C@H](COP(=O)(N[C@@H](C)C(=O)OCC(C)(C)C)N[C@@H](C)C(=O)OCC(C)(C)C)[C@@H](O)[C@@]1(C)O (mixture of isomers)	> 100 µM
COc1nc(N)nc2c1ncn2[C@@H]1O[C@H](COP(=O)(N[C@@H](C)C(=O)OC2CCCCO2)N[C@@H](C)C(=O)OC2CCCCO2)[C@@H](O)[C@@]1(C)O (mixture of isomers)	> 100 µM
COc1nc(N)nc2c1ncn2[C@@H]1O[C@H](COP(=O)(N2CCOCC2)N2CCOCC2)[C@@H](O)[C@@]1(C)O (mixture of isomers)	> 100 µM
COc1nc(N)nc2c1ncn2[C@@H]1O[C@H](COP(=O)(N[C@@H](CC(C)C)C(=O)OCC(C)(C)C)N[C@@H](CC(C)C)C(=O)OCC(C)(C)C)[C@@H](O)[C@@]1(C)O (mixture of isomers)	27 µM
COc1nc(N)nc2c1ncn2[C@@H]1O[C@H](COP(=O)(N2CCC[C@H]2C(=O)OCC(C)(C)C)N2CCC[C@H]2C(=O)OCC(C)(C)C)[C@@H](O)[C@@]1(C)O (mixture of isomers)	56 µM
COC(=O)[C@@H]1CCCN1P(=O)(N[C@@H](C)C(=O)OCC(C)(C)C)OC[C@H]1O[C@@H](n2cnc3c(OC)nc(N)nc32)[C@](C)(O)[C@@H]1O (mixture of isomers)	> 100 µM
COc1nc(N)nc2c1ncn2[C@@H]1O[C@H](COP(=O)(N[C@@H](C)C(=O)OCc2ccccc2)N[C@@H](C)C(=O)OCc2ccccc2)[C@@H](O)[C@@]1(C)O (mixture of isomers)	> 100 µM
COc1nc(N)nc2c1ncn2[C@@H]1O[C@H](COP(=O)(N[C@H](C(=O)N[C@@H](C)C(=O)OCC(C)(C)C)C(C)C)N[C@H](C(=O)N[C@@H](C)C(=O)OCC(C)(C)C)C(C)C)[C@@H](O)[C@@]1(C)O (mixture of isomers)	> 100 µM
COc1nc(N)nc2c1ncn2[C@@H]1O[C@H](COP(=O)(N[C@@H](C)C(=O)O[C@@H](C)c2ccccc2)N[C@@H](C)C(=O)O[C@@H](C)c2ccccc2)[C@@H](O)[C@@]1(C)O (mixture of isomers)	88 µM
COc1nc(N)nc2c1ncn2[C@@H]1O[C@H](COP(=O)(N[C@@H](C)C(=O)OCC2CC2)N[C@@H](C)C(=O)OCC2CC2)[C@@H](O)[C@@]1(C)O (mixture of isomers)	> 100 µM
COc1nc(N)nc2c1ncn2[C@@H]1O[C@H](COP(=O)(N[C@H](C(=O)OCc2ccccc2)C(C)C)N[C@H](C(=O)OCc2ccccc2)C(C)C)[C@@H](O)[C@@]1(C)O (mixture of isomers)	49 µM
C[C@@]1(O)[C@H](O)[C@@H](CO)O[C@H]1n1cnc2c(=O)[nH]c(N)nc21	> 100 µM
COc1nc(N)nc2c1ncn2[C@@H]1O[C@H](COP(=O)(N[C@@H](CCSC)C(=O)OCc2ccccc2)N[C@@H](CCSC)C(=O)OCc2ccccc2)[C@@H](O)[C@@]1(C)O (mixture of isomers)	> 100 µM
COc1nc(N)nc2c1ncn2[C@@H]1O[C@H](COP(=O)(N[C@@H](CC(C)C)C(=O)OCc2ccccc2)N[C@@H](CC(C)C)C(=O)OCc2ccccc2)[C@@H](O)[C@@]1(C)O (mixture of isomers)	39 µM
CCCCCOC(=O)[C@H](C)NP(=O)(N[C@@H](C)C(=O)OCCCCC)OC[C@H]1O[C@@H](n2cnc3c(OC)nc(N)nc32)[C@](C)(O)[C@@H]1O (mixture of isomers)	65 µM
COc1nc(N)nc2c1ncn2[C@@H]1O[C@H](COP(=O)(N[C@@H](C)C(=O)OC2CCCCC2)N[C@@H](C)C(=O)OC2CCCC2)[C@@H](O)[C@@]1(C)O (mixture of isomers)	> 100 µM

Where these numbers come from: ChEMBL document CHEMBL2150978
